- System: Plasmodium falciparum
- Test Protocol: NOVARTIS: Inhibition of Plasmodium falciparum W2 (drug-resistant) proliferation in erythrocyte-based infection assay
- Format: functional, organism-based
- Recorded Conditions: Plasmodium falciparum, W2; read-out: EC50
In plain terms, low EC50, meaning strictly below 600 nM, gives Condition met, and everything else gives Condition not met.

Example entries and their recorded answers appear below.
- Compound: "COc1cc(C=NNC(=O)c2cccc3ccccc23)ccc1OCC(N)=O"
  Label: "Condition not met"
- Compound: "CSc1nnc(CN2CCSCC2)n1C"
  Label: "Condition not met"
- Compound: "Cc1ccc(NC(=O)CSc2nc3cc(C(=O)NCCCOC(C)C)ccc3c(=O)n2Cc2ccco2)cc1Cl"
  Label: "Condition met"
- Compound: "Cc1cc(C)c(S(=O)(=O)N(C)CCCNc2ccnc3cc(Cl)ccc23)c(C)c1"
  Label: "Condition met"

Exam item: Hello, is EC50 of the following compound strictly smaller than 600 nM? COc1ccc(OC)c(NC(=O)c2cnn3c(C(F)(F)F)cc(-c4ccc(OC)c(OC)c4)nc23)c1
Marked response: Condition not met

Exam item: Please state whether EC50 is below 600 nM for CN(C)c1nnc(/C(C#N)=C/c2cc(C(=O)c3cccc(Cl)c3)cn2C)o1
Marked response: Condition not met

Exam item: Here's an entry: Ic1ccc(NCc2cn3ccccc3n2)cc1 . Is its EC50 below 600 nM?
Marked response: Condition not met
